measurementParameters: human
metricName: Hepatotoxicity (malignant tumour)

substance | metricName | obsValue
NARTOGRASTIM | Hepatotoxicity (malignant tumour) | 0
PEGLOTICASE | Hepatotoxicity (malignant tumour) | 0
INFLIXIMAB | Hepatotoxicity (malignant tumour) | 0
SERRAPEPTASE | Hepatotoxicity (malignant tumour) | 0
INTERFERON ALFA-N1 | Hepatotoxicity (malignant tumour) | 0
GALLIUM | Hepatotoxicity (malignant tumour) | 0
REVIPARIN SODIUM | Hepatotoxicity (malignant tumour) | 0
COLISTIN | Hepatotoxicity (malignant tumour) | 0
SPIRAMYCIN | Hepatotoxicity (malignant tumour) | 0
LOBAPLATIN | Hepatotoxicity (malignant tumour) | 0

* * *

measurementParameters: human
*1 amine or outer side, *2 acyl side, *3 side chain or, on linkers, in order; H or OH if unused. Where a SMILES comes first, the peptide text is derived from it. Bridges are numbered along the chain shown (N, C = ends). [ ]: non-standard residue; d: D form. The star is where a group is joined. X1 = O=C1C[C@@H](C(=O)[*:2])N([*:1])C[C@H]1CS[C@@H]1CN2CCC1CC2; NMePhe(4-NMe2) = CN[C@@H](Cc1ccc(N(C)C)cc1)C(=O)O; Pip(4-oxo) = O=C1CCN[C@H](C(=O)O)C1; Picolinoyl(3-OH) = O=C(c1ncccc1O)*; Phg = N[C@H](C(=O)O)c1ccccc1; dAbu = CC[C@@H](N)C(=O)O
metricName: Hepatotoxicity (choleostasis)

compound | obsValue
COC(=O)C1=C(C)NC(C)=C(C(=O)O[C@H]2CCN(Cc3ccccc3)C2)[C@H]1c1cccc([N+](=O)[O-])c1 [BARNIDIPINE] | 0
Fc1ccc([C@@H]2CCNC[C@H]2COc2ccc3c(c2)OCO3)cc1 [PAROXETINE] | 2
C[C@]12CC[C@H]3[C@@H](CCC4=CC(=O)CC[C@@]43C)[C@@H]1CC[C@@H]2O [TESTOSTERONE] | 3
COc1ccccc1OCCNCC(O)COc1cccc2[nH]c3ccccc3c12 (stereo unspecified) [CARVEDILOL] | 1
CCOC(=O)[C@H](CCc1ccccc1)N[C@H]1CCc2ccccc2N(CC(=O)O)C1=O [BENAZEPRIL] | 0
O=C(OCC(COC(=O)c1cccnc1)(COC(=O)c1cccnc1)COC(=O)c1cccnc1)c1cccnc1 [NICERITROL] | 0
O=C(Nc1ccc(Cl)cc1)NS(=O)(=O)c1ccc2c(c1)CCC2 [SULOFENUR] | 3
NC(=O)CCC/N=C(\c1ccc(Cl)cc1)c1cc(F)ccc1O [PROGABIDE] | 0
C#C[C@]1(O)CC[C@H]2[C@@H]3CCC4=CC(=O)CCC4=C3C=C[C@@]21CC [GESTRINONE] | 0
CC(C)(C#N)c1cc(Cn2cncn2)cc(C(C)(C)C#N)c1 [ANASTROZOLE] | 0
O=C(NCN1CCOCC1)c1cnccn1 [MORINAMIDE] | 0
CCn1nc(C(=O)O)c(=O)c2cc3c(cc21)OCO3 [CINOXACIN] | 0
CCN(CC)CCS(=O)(=O)[C@@H]1CCN2C(=O)c3coc(n3)CC(=O)C[C@H](O)/C=C(C)/C=C/CNC(=O)/C=C/[C@@H](C)[C@@H](C(C)C)OC(=O)[C@@H]12.CC[C@H]1NC(=O)[C@@H](NC(=O)c2ncccc2O)[C@@H](C)OC(=O)[C@H](c2ccccc2)NC(=O)[C@@H]2CC(=O)[C@H](CS[C@@H]3CN4CCC3CC4)CN2C(=O)[C@H](Cc2ccc(N(C)C)cc2)N(C)C(=O)[C@@H]2CCCN2C1=O [QUINUPRISTIN/DALFOPRISTIN] ({Picolinoyl(3-OH)}-T[dAbu]P[NMePhe(4-NMe2)][X1][Phg]; ester 1-C) | 0
CCOC(=O)c1cncn1[C@H](C)c1ccccc1 [ETOMIDATE] | 0
Cc1cccc(Nc2cc(Cl)nc(SCC(=O)NCCO)n2)c1C [PIRINIXIL] | 0
CC1=C(/C=C/C(C)=C/C=C/C(C)=C\C(=O)O)C(C)(C)CCC1 [ISOTRETINOIN] | 0
CCN(CC)CCn1c(-c2ccccc2)noc1=N [IMOLAMINE] | 0
CN(C)CC(Oc1ccccc1)Oc1ccccc1 [MEDIFOXAMINE] | 0
CC(O)CCC(=O)c1ccoc1 (stereo unspecified) | 0
CC[C@H]1NC(=O)[C@@H](NC(=O)c2ncccc2O)[C@@H](C)OC(=O)[C@H](c2ccccc2)NC(=O)[C@@H]2CC(=O)CCN2C(=O)[C@H](Cc2ccc(N(C)C)cc2)N(C)C(=O)[C@@H]2CCCN2C1=O [PRISTINAMYCIN 1A] ({Picolinoyl(3-OH)}-T[dAbu]P[NMePhe(4-NMe2)][Pip(4-oxo)][Phg]; ester 1-C) | 0
C=CCC(C(=O)NC(N)=O)C(C)C (stereo unspecified) [APRONAL] | 0
Cc1ccnc2c1NC(=O)c1cccnc1N2C1CC1 [NEVIRAPINE] | 2
C=C(CC)C(=O)c1ccc(OCC(=O)O)c(Cl)c1Cl [ETHACRYNIC ACID] | 0
CCCCCCCCCCCCCCCCSCC(COC)COP(=O)([O-])OCC[N+](C)(C)C (stereo unspecified) [ILMOFOSINE] | 0
CCOc1nc2cccc(C(=O)O)c2n1Cc1ccc(-c2ccccc2-c2nnn[nH]2)cc1 | 0
CC(C)NNC(=O)c1ccncc1 [IPRONIAZID] | 3
COC(=O)[C@H]1[C@H]2C[C@@H]3c4[nH]c5cc(OC)ccc5c4CCN3C[C@H]2C[C@@H](OC(=O)c2cc(OC)c(OC)c(OC)c2)[C@@H]1OC [RESERPINE] | 1
Cc1nnc(NS(=O)(=O)c2ccc(N)cc2)s1 [SULFAMETHIZOLE] | 1
CN1C(C(=O)Nc2ccccn2)=C(O)c2ccccc2S1(=O)=O [PIROXICAM] | 10
COc1nc(C)nc(Cl)c1N=C1NCCN1 [MOXONIDINE] | 1
COc1cc2nc(N3CCN(C(=O)C4COc5ccccc5O4)CC3)nc(N)c2cc1OC (stereo unspecified) [DOXAZOSIN] | 0

* * *

measurementParameters: human

molecule | Hepatotoxicity (cytolytic)
OCc1cc(C(O)CNCCCCCCOCCCCc2ccccc2)ccc1O (stereo not given) | 0
CCCCC1=NC2(CCCC2)C(=O)N1Cc1ccc(-c2ccccc2-c2nnn[nH]2)cc1 | 0
CC[C@]1(O)CC[C@H]2[C@@H]3CCC4=CC(=O)CC[C@@H]4[C@H]3CC[C@@]21C | 0
CC1COc2c(N3CCN(C)CC3)c(F)cc3c(=O)c(C(=O)O)cn1c23 (stereo not given) | 6
O=C(CCCN1CCC(O)(c2ccc(Br)cc2)CC1)c1ccc(F)cc1 | 0

* * *

experimentDescription: Highest frequency of moderate liver toxicity observed during clinical trials, expressed as a percentage. [column '% BIOL' in source]
measurementParameters: human, Liver
metricName: Hepatotoxicity (moderate) (%)

molecule | metricName | obsValue
[H]/N=C(/N)N[C@H]1[C@H](O)[C@@H](O)[C@H](O[C@@H]2O[C@@H](C)[C@](O)(C=O)[C@H]2O[C@@H]2O[C@@H](CO)[C@H](O)[C@@H](O)[C@@H]2NC)[C@@H](N/C(N)=N\[H])[C@@H]1O [STREPTOMYCIN] | Hepatotoxicity (moderate) | 0
COc1ccccc1OCCNCC(O)COc1cccc2[nH]c3ccccc3c12 (stereo not drawn) [CARVEDILOL] | Hepatotoxicity (moderate) | 0
COc1ccc2cc([C@H](C)C(=O)O)ccc2c1 [NAPROXEN] | Hepatotoxicity (moderate) | 9.5
CC(C)c1cccc(C(C)C)c1O [PROPOFOL] | Hepatotoxicity (moderate) | 0
CC(C)(C)NC(=O)[C@@H]1CN(Cc2cccnc2)CCN1C[C@@H](O)C[C@@H](Cc1ccccc1)C(=O)N[C@H]1c2ccccc2C[C@H]1O.O | Hepatotoxicity (moderate) | 8
Cn1cnc([N+](=O)[O-])c1Sc1ncnc2nc[nH]c12 [AZATHIOPRINE] | Hepatotoxicity (moderate) | 28
C#C[C@]1(O)CC[C@H]2[C@@H]3CCC4=CC(=O)CC[C@@H]4[C@H]3CC[C@@]21CC [LEVONORGESTREL] | Hepatotoxicity (moderate) | 0.4
NNc1nncc2ccccc12 [HYDRALAZINE] | Hepatotoxicity (moderate) | 0

* * *

experimentDescription: Presence of at least one case with successful reintroduction. [column 'REINT' in source]
measurementParameters: human
metricName: Hepatotoxicity (successful reintroduction)

compound | obsValue
Nc1ccn([C@@H]2O[C@H](CO)[C@@H](O)[C@@H]2O)c(=O)n1 | yes
Nc1nc(O)c2ncn(COC(CO)CO)c2n1 | yes
CCOC(=O)NNc1nncc2ccccc12 | yes
COC(=O)Nc1nc2ccc(C(=O)c3ccccc3)cc2[nH]1 | yes
Clc1ccc(C(c2ccccc2Cl)C(Cl)Cl)cc1 (stereo not given) | yes
CCN(CC)CCCC(C)Nc1c2ccc(Cl)cc2nc2ccc(OC)cc12 (stereo not given) | yes
CN(C)CCCN1c2ccccc2CCc2ccccc21 | yes
O=C(O)c1cccnc1Nc1cccc(C(F)(F)F)c1 | yes
CN1C(=O)CCS(=O)(=O)C1c1ccc(Cl)cc1 (stereo not given) | yes
Nc1c2c(nc3ccccc13)CCCC2 | yes
